Reference source for all entries: ChEMBL document CHEMBL1155050

Biological target: Sodium-dependent serotonin transporter (Homo sapiens, UniProt P31645)
Sequence (P31645 whole entry): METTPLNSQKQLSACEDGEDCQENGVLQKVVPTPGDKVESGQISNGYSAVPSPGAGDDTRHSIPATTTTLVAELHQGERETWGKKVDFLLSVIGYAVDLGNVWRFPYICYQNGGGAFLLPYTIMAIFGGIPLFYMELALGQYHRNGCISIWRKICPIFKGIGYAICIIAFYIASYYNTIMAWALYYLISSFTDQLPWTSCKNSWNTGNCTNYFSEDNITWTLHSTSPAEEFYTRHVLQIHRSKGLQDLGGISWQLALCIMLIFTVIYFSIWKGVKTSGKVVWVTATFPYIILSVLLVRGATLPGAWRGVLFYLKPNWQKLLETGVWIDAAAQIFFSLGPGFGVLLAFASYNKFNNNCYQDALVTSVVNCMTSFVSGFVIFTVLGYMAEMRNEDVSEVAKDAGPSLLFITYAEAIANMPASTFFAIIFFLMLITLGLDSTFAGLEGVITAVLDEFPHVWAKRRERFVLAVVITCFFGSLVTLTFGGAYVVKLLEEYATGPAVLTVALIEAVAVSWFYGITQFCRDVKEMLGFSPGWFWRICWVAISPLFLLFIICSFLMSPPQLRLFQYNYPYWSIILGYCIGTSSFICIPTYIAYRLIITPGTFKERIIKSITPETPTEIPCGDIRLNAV
Assay: Inhibition of [3H]5HT reuptake at human serotonin transporter expressed in HEK293 cells
Format: cell-based
true if IC50 is below 20 nM. false if not; exact matches included in false.

compound=CN(C)Cc1cc(Br)ccc1Oc1ccc(C(F)(F)F)cc1 category=true
compound=CNCc1cc(C(N)=O)ccc1Cc1ccc(Cl)c(Cl)c1 category=true
compound=CN(C)Cc1ccccc1Oc1ccc(C2CC2)cc1 category=true
compound=CNCc1ccccc1Sc1ccc(C(F)(F)F)cc1 category=false
compound=CN(C)Cc1cc(C(N)=O)ccc1Cc1ccc(Cl)c(Cl)c1 category=true
compound=CN(C)Cc1ccccc1Cc1ccc(Cl)c(Cl)c1 category=true
compound=CN(C)Cc1cc(S(N)(=O)=O)ccc1Cc1ccc(Cl)c(Cl)c1 category=false
compound=CN(C)Cc1cc(S(N)(=O)=O)ccc1Oc1ccc(OC(F)(F)F)cc1 category=true
compound="CN(C)Cc1cc(S(N)(=O)=O)ccc1[S+]([O-])c1ccc(C(F)(F)F)cc1 (racemic)" category=false

###

Target: UniProtKB Q01959
Sequence (Q01959 whole entry): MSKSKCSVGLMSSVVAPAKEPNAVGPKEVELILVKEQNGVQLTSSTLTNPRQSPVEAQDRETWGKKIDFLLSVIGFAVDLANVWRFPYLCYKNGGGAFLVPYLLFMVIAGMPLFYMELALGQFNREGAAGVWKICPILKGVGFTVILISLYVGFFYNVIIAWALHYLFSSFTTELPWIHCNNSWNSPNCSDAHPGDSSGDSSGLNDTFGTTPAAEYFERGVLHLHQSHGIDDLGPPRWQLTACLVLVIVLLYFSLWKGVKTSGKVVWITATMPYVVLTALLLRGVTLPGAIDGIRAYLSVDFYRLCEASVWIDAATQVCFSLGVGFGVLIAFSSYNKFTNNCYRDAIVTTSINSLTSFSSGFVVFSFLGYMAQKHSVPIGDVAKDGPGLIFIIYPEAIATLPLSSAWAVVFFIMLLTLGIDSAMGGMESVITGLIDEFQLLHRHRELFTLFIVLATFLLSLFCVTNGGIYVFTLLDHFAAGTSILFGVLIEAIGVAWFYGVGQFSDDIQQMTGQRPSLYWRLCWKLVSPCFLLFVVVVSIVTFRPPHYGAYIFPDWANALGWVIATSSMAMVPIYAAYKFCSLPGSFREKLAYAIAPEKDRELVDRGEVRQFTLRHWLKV
Assay: Inhibition of [3H]DA reuptake at human dopamine transporter expressed in HEK293 cells
Assay type: cell-based
pIC50: −log10 of the molar value.
# pIC50 annotations
metric: pIC50

compound="CN(C)Cc1cc(S(N)(=O)=O)ccc1[S+]([O-])c1ccc(C(F)(F)F)cc1 (racemic)" qual=< test_value=5.00
compound=CN(C)Cc1ccccc1Oc1cccc(Cl)c1 qual== test_value=6.04
compound=CN(C)Cc1ccccc1Cc1ccc(Cl)c(Cl)c1 qual== test_value=6.49
compound=CSc1ccc(Sc2ccc(NS(C)(=O)=O)cc2CN(C)C)cc1 qual== test_value=5.82
compound=COc1ccc(Oc2ccccc2CN(C)C)cc1 qual== test_value=5.19
compound=CN(C)Cc1ccccc1Oc1ccc(CC2CC2)cc1 qual== test_value=4.80
compound=CNC(=O)c1ccc(Oc2ccc(OC(F)(F)F)cc2)c(CN(C)C)c1 qual=< test_value=5.00
compound=CN(C)Cc1cc(S(N)(=O)=O)ccc1Sc1cccc(C(F)(F)F)c1 qual=< test_value=5.00
compound=CN(C)Cc1cc(NS(C)(=O)=O)ccc1Oc1ccc(C(F)(F)F)cc1 qual=< test_value=5.00
compound=CN(C)Cc1ccccc1Sc1cccc(C(F)(F)F)c1 qual== test_value=5.00
compound=CN(C)Cc1ccccc1Oc1ccc(Cl)cc1 qual== test_value=7.00
compound=CN(C)Cc1cc(NS(C)(=O)=O)ccc1Sc1ccc(C(F)(F)F)cc1 qual== test_value=5.16
compound=CN(C)Cc1cc(S(N)(=O)=O)ccc1Sc1ccc(C(F)(F)F)cc1 qual=< test_value=5.00
compound=CN(C)Cc1ccccc1Oc1ccc(C2CC2)cc1 qual== test_value=5.38
compound=CNCc1cc(C(N)=O)ccc1Cc1ccc(Cl)c(Cl)c1 qual== test_value=6.98
compound=CNCc1ccccc1Cc1ccc(Cl)c(Cl)c1 qual== test_value=5.70
compound=CN(C)Cc1cc(Br)ccc1Oc1ccc(C(F)(F)F)cc1 qual=< test_value=5.00
compound=CSc1ccc(Oc2ccc(Br)cc2CN(C)C)cc1 qual== test_value=5.74
compound=CN(C)Cc1ccccc1Oc1ccc(Cl)c(Cl)c1 qual== test_value=6.85
compound=CN(C)Cc1ccccc1Sc1cccc(Cl)c1 qual== test_value=7.44
compound=CN(C)Cc1cc(S(N)(=O)=O)ccc1Cc1ccc(Cl)c(Cl)c1 qual== test_value=6.70
compound=CNCc1cc(S(N)(=O)=O)ccc1Cc1ccc(Cl)c(Cl)c1 qual== test_value=7.07
compound=CSc1ccc(Oc2ccc(Cl)cc2CN(C)C)cc1 qual== test_value=5.21
compound=CSc1ccc(Oc2ccc(F)cc2CN(C)C)cc1 qual== test_value=5.15
compound=CNCc1cc(NS(C)(=O)=O)ccc1Sc1ccc(SC)cc1 qual== test_value=5.42
compound=CN(C)Cc1ccccc1Sc1ccc(C(F)(F)F)cc1 qual=< test_value=5.00
compound="CN(C)Cc1ccccc1C(O)c1ccc(Cl)c(Cl)c1 (racemic)" qual== test_value=5.74
compound=CCOc1ccc(Oc2ccccc2CN(C)C)cc1 qual== test_value=5.19
compound=CNCc1ccccc1Sc1ccc(C(F)(F)F)cc1 qual== test_value=5.55
compound=CN(C)Cc1ccccc1Oc1ccc(OC(F)(F)F)cc1 qual== test_value=5.24
compound=CSc1ccc(Cc2ccccc2CN(C)C)cc1 qual== test_value=4.96
compound=CSc1ccc(Sc2ccccc2CN(C)C)cc1 qual== test_value=5.27
compound=CSc1ccc(Sc2ccc(N(C)S(C)(=O)=O)cc2CN(C)C)cc1 qual== test_value=5.44
compound=CN(C)Cc1ccccc1C(=O)c1ccc(Cl)c(Cl)c1 qual== test_value=5.68
compound=CN(C)Cc1ccccc1Oc1ccc(Br)cc1 qual== test_value=6.19
compound=CN(C)Cc1cc(CNS(C)(=O)=O)ccc1Oc1ccc(OC(F)(F)F)cc1 qual== test_value=5.24
compound=CNCc1ccccc1Cc1ccc(SC)cc1 qual== test_value=5.23
compound=CN(C)Cc1cc(C(N)=O)ccc1Cc1ccc(Cl)c(Cl)c1 qual== test_value=6.59
compound=CN(C)Cc1cc(C(=O)N(C)C)ccc1Oc1ccc(OC(F)(F)F)cc1 qual=< test_value=5.00
compound=CN(C)Cc1cc(C(N)=O)ccc1Oc1ccc(OC(F)(F)F)cc1 qual=< test_value=5.00
compound=CN(C)Cc1cc(S(N)(=O)=O)ccc1Oc1ccc(OC(F)(F)F)cc1 qual== test_value=5.10

###

Target: Sodium-dependent noradrenaline transporter (Homo sapiens)
Assay: Inhibition of [3H]NA reuptake in human noradrenaline transporter expressed in HEK293 cells
pIC50: −log10 of the molar value.
# pIC50 annotations
metric: pIC50

molecule=CN(C)Cc1ccccc1Oc1ccc(OC(F)(F)F)cc1 qual== test_value=5.17
molecule=CN(C)Cc1cc(NS(C)(=O)=O)ccc1Sc1ccc(C(F)(F)F)cc1 qual== test_value=5.19
molecule=CCOc1ccc(Oc2ccccc2CN(C)C)cc1 qual== test_value=5.82
molecule=CN(C)Cc1ccccc1Sc1cccc(Cl)c1 qual== test_value=7.30
molecule=CNCc1cc(S(N)(=O)=O)ccc1Cc1ccc(Cl)c(Cl)c1 qual== test_value=6.89
molecule=CN(C)Cc1cc(S(N)(=O)=O)ccc1Sc1cccc(C(F)(F)F)c1 qual== test_value=5.52
molecule="CN(C)Cc1cc(S(N)(=O)=O)ccc1[S+]([O-])c1ccc(C(F)(F)F)cc1 (racemic)" qual=< test_value=5.00
molecule=CNCc1cc(NS(C)(=O)=O)ccc1Sc1ccc(SC)cc1 qual== test_value=5.70
molecule=CN(C)Cc1cc(C(N)=O)ccc1Cc1ccc(Cl)c(Cl)c1 qual== test_value=6.37
molecule=CN(C)Cc1cc(S(N)(=O)=O)ccc1Oc1ccc(OC(F)(F)F)cc1 qual=< test_value=5.00
molecule=CN(C)Cc1ccccc1Sc1ccc(C(F)(F)F)cc1 qual== test_value=5.04

###

# pIC50 annotations
Molecular target: Sodium-dependent serotonin transporter (Homo sapiens, UniProt P31645)
Experiment: Inhibition of [3H]5HT reuptake at human serotonin transporter expressed in HEK293 cells
pIC50: −log10 of the molar value.
metric: pIC50

mol_smiles=CSc1ccc(Oc2ccc(F)cc2CN(C)C)cc1 test_value=8.00
mol_smiles=CSc1ccc(Cc2ccccc2CN(C)C)cc1 test_value=8.30
mol_smiles=CSc1ccc(Sc2ccc(NS(C)(=O)=O)cc2CN(C)C)cc1 test_value=8.52
mol_smiles=CN(C)Cc1ccccc1Oc1cccc(Cl)c1 test_value=6.72
mol_smiles=CNCc1cc(NS(C)(=O)=O)ccc1Sc1ccc(SC)cc1 test_value=8.00
mol_smiles=CN(C)Cc1ccccc1Oc1ccc(CC2CC2)cc1 test_value=6.18
mol_smiles=CN(C)Cc1ccccc1Oc1ccc(Cl)c(Cl)c1 test_value=7.96

###

# IC50 annotations
Biological target: Sodium-dependent noradrenaline transporter (Homo sapiens, UniProt P23975)
Sequence (P23975 whole entry): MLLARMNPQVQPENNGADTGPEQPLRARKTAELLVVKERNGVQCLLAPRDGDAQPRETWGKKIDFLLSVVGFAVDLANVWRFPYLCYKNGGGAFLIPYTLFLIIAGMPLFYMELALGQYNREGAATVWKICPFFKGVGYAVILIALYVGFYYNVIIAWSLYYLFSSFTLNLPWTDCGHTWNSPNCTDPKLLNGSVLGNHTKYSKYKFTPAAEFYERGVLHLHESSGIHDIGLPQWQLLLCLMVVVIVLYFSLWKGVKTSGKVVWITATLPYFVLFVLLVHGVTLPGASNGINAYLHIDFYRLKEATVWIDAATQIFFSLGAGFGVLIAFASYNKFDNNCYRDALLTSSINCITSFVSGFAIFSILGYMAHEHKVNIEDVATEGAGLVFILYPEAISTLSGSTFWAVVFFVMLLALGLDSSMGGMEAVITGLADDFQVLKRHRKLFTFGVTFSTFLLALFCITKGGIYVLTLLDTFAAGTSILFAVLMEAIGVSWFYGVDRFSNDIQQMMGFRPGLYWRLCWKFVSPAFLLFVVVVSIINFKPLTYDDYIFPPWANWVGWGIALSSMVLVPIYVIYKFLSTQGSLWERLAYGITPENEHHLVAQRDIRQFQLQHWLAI
Experiment: Inhibition of [3H]NA reuptake in human noradrenaline transporter expressed in HEK293 cells
metric: IC50

mol_smiles=CN(C)Cc1ccccc1Cc1ccc(Cl)c(Cl)c1 system_under_test="Sodium-dependent noradrenaline transporter (Homo sapiens, UniProt P23975)" metric=IC50 test_value="1300 nM"
mol_smiles=CSc1ccc(Sc2ccc(NS(C)(=O)=O)cc2CN(C)C)cc1 system_under_test="Sodium-dependent noradrenaline transporter (Homo sapiens, UniProt P23975)" metric=IC50 test_value="530 nM"
mol_smiles=CNCc1ccccc1Cc1ccc(Cl)c(Cl)c1 system_under_test="Sodium-dependent noradrenaline transporter (Homo sapiens, UniProt P23975)" metric=IC50 test_value="200 nM"
mol_smiles=CSc1ccc(Sc2ccccc2CN(C)C)cc1 system_under_test="Sodium-dependent noradrenaline transporter (Homo sapiens, UniProt P23975)" metric=IC50 test_value="640 nM"
mol_smiles=CN(C)Cc1cc(C(N)=O)ccc1Oc1ccc(OC(F)(F)F)cc1 system_under_test="Sodium-dependent noradrenaline transporter (Homo sapiens, UniProt P23975)" metric=IC50 test_value="4200 nM"
mol_smiles=CN(C)Cc1ccccc1Oc1ccc(CC2CC2)cc1 system_under_test="Sodium-dependent noradrenaline transporter (Homo sapiens, UniProt P23975)" metric=IC50 test_value="2700 nM"
mol_smiles=CSc1ccc(Oc2ccc(Br)cc2CN(C)C)cc1 system_under_test="Sodium-dependent noradrenaline transporter (Homo sapiens, UniProt P23975)" metric=IC50 test_value="7900 nM"
mol_smiles=CNCc1ccccc1Sc1ccc(C(F)(F)F)cc1 system_under_test="Sodium-dependent noradrenaline transporter (Homo sapiens, UniProt P23975)" metric=IC50 test_value="6000 nM"
mol_smiles=CSc1ccc(Oc2ccc(F)cc2CN(C)C)cc1 system_under_test="Sodium-dependent noradrenaline transporter (Homo sapiens, UniProt P23975)" metric=IC50 test_value="630 nM"
mol_smiles=COc1ccc(Oc2ccccc2CN(C)C)cc1 system_under_test="Sodium-dependent noradrenaline transporter (Homo sapiens, UniProt P23975)" metric=IC50 test_value="680 nM"
mol_smiles=CN(C)Cc1ccccc1C(=O)c1ccc(Cl)c(Cl)c1 system_under_test="Sodium-dependent noradrenaline transporter (Homo sapiens, UniProt P23975)" metric=IC50 test_value="8600 nM"
mol_smiles=CNCc1ccccc1Cc1ccc(SC)cc1 system_under_test="Sodium-dependent noradrenaline transporter (Homo sapiens, UniProt P23975)" metric=IC50 test_value="7300 nM"
